# ASSAY_PROTOCOL: Drug concentration in brain of Wistar rat at 10 mg/kg, po measured after 240 mins
# Type: ADME, organism-based
# CONDITIONS_USED: read-out: Ct
PARAMETER_MEASURED: concentration at 4 h (ng/g)
The reply should contain only the number, in ng/g.

Prompt: For COc1ccc(Cc2nn3c([C@@H](CCCc4ccccc4)[C@@H](C)O)nc(C)c3c(=O)[nH]2)cc1OC , what is its reported concentration at 4 h?
Completion: 3.6

----------
# ASSAY_PROTOCOL: Binding affinity to PDE1 derived from bovine brain assessed as inhibition constant using fluorescently-labeled cGMP as substrate incubated for 15 mins by IMAP assay
PARAMETER_MEASURED: pKi
Entry type: numeric. Quantity: pKi, the -log10 of concentration in molar units.

Prompt: For CN1C(=O)c2c(nn(Cc3ccc(-c4cccc(F)n4)cc3)c2Nc2ccccc2)N2C1=N[C@@H]1CCC[C@@H]12 [LENRISPODUN PHOSPHATE] , what is its reported pKi?
Completion: 10.24

----------
# STUDY_TARGET: cAMP and cAMP-inhibited cGMP 3',5'-cyclic phosphodiesterase 10A (Homo sapiens)
# Sequence (Q9Y233 whole entry): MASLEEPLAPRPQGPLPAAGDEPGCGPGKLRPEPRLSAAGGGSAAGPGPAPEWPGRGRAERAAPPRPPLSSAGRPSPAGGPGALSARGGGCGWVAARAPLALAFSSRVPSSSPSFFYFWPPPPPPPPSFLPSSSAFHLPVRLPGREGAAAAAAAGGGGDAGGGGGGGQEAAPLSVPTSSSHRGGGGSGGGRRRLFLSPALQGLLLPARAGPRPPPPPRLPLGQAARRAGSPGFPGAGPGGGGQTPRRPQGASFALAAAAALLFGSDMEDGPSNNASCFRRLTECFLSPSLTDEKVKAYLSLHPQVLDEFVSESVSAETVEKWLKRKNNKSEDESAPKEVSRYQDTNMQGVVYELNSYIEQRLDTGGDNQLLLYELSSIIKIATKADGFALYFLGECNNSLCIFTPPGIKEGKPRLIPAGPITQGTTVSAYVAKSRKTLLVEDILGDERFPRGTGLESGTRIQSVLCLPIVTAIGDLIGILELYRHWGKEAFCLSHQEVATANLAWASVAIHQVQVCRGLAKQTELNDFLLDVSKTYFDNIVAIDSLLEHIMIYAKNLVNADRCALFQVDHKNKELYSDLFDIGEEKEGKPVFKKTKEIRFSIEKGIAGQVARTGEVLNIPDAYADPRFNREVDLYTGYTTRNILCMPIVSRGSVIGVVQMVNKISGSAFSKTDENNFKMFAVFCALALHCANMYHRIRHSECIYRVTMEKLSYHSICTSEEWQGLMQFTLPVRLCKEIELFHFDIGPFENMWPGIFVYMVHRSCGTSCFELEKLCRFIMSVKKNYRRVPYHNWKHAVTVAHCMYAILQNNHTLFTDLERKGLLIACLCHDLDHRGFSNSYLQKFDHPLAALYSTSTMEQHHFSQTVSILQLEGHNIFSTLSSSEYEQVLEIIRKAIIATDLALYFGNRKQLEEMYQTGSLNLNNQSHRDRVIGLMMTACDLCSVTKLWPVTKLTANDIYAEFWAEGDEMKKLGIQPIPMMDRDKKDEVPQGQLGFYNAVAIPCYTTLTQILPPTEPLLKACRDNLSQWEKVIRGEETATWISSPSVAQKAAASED
# ASSAY_PROTOCOL: Binding affinity to recombinant human PDE10A assessed as inhibition constant using fluorescein-labeled cAMP as substrate incubated for 5 mins followed by substrate addition measured after 60 mins by IMAP TR-FRET assay
PARAMETER_MEASURED: Ki (nM)
The reply should contain only the number, in nM.

Prompt: For Cc1ncc(C)n2nc(/C=C/c3nc(N4CCCC4)cc(N4CCOCC4)n3)nc12 , what is its reported Ki?
Completion: 0.36

----------
# ASSAY_PROTOCOL: Ratio of drug concentration in brain to plasma in Swiss Albino mouse
# Type: ADME
# CONDITIONS_USED: read-out: BPR
PARAMETER_MEASURED: Kp
Answer with the value's number alone.

Prompt: For O=c1c2ccccc2[nH]c(=S)n1-c1ccccc1 , what is its reported Kp?
Completion: 0.38

----------
# STUDY_TARGET: Phosphodiesterase 1 (Homo sapiens, UniProt P54750+Q01064+Q14123)
# ASSAY_PROTOCOL: Inhibition of PDE1 (unknown origin)
PARAMETER_MEASURED: IC50 (µM)
The reply should contain only the number, in µM.

Prompt: For CCOC(=O)C1=C[C@]2(CC)CCCN3CCc4c(n1c1ccccc41)[C@@H]32 , what is its reported IC50?
Completion: 30

Source of measurements: ChEMBL document CHEMBL5126533
